Target: HSET full length protein (Homo sapiens (Human))
Sequence (Q9BW19 whole entry): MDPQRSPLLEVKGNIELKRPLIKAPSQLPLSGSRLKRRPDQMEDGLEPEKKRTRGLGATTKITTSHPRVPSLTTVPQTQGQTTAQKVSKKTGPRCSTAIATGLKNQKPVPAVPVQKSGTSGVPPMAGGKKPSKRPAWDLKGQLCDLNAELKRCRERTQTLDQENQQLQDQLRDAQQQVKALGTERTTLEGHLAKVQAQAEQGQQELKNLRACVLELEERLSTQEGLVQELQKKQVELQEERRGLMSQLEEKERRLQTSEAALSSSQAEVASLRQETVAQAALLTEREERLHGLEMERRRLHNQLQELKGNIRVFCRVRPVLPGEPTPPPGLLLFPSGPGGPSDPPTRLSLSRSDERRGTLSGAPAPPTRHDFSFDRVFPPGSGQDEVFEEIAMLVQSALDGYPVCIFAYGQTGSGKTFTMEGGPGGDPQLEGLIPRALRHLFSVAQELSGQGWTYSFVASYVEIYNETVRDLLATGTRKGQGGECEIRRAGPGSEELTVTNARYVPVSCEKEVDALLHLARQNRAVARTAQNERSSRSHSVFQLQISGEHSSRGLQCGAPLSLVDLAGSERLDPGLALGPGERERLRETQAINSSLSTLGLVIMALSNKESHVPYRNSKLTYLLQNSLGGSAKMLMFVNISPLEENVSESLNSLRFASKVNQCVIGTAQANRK
Test: HSET ADP-Glo Assay S - 3 μM ATP
Type: biochemical
Conditions: 5 nM HSET, 70 μg/mL microtubule, 80 min at rt, read-out: COMBINED HSET ADP GLO IC50
Endpoint: IC50

Example results:
CCOC(=O)c1sc(NC(=O)CCNC(=O)c2cccc(C(=O)OC)c2F)nc1C = 1830 nM
CCCOC1(c2sc(NC(=O)CCNc3nccc4ccc(-c5noc(C)n5)cc34)nc2C)COC1 = 57 nM

Consider the following items and state reported IC50 for each.
1. Cc1nc(-c2ccc3ccnc(NC4CN(C(=O)N(C)c5nc(C)c(C(=O)OC(C)(C)C)s5)C4)c3c2)no1
2. COC(=O)c1cc(NC(=O)CCNC(=O)c2cccc(-c3noc(C)n3)c2)nn1C

Reply:
["5 nM", "14100 nM"]

====

Target: HSET full length protein (Homo sapiens (Human))
Experiment: HSET ADP-Glo Assay S - 3 μM ATP
Conditions: 5 nM HSET, 70 μg/mL microtubule, 80 min at rt, read-out: COMBINED HSET ADP GLO IC50
Provide the recorded IC50 for the entries that follow.
Answers are plain numbers, in nM.

Example results:
Cc1nc(-c2ccc3ccnc(NCCC(=O)Nc4ncc(C#N)s4)c3c2)no1 = 1130
CCOC(=O)c1sc(NC(=O)CCNC(=O)c2cccc(-n3cccn3)c2)nc1C = 4570
CCOC(=O)c1sc(NC(=O)CCNC(=O)c2cccc(-c3noc(C)n3)c2)nc1CC = 45
Cc1nc(-c2cccc(C(=O)N[C@H](CC#N)CC(=O)Nc3nc(C)c(C(=O)OC(C)C)s3)c2)no1 = 167
Cc1nc(-c2ccc3ccnc(N[C@H]4C[C@@H](C(=O)Nc5nc(C)c(C(C)(C)C)s5)N(C)C4)c3c2)no1 = 2840

Consider the following items and state reported IC50 for each.
1. Cc1nc(-c2ccc3ccnc(NCCC(=O)Nc4cc(C(C)(C)C)on4)c3c2)no1
2. CCOC(=O)c1sc(NC(=O)CCNC(=O)c2ccc(C)c(C(=O)OC)c2)nc1C
3. CNCCC[C@@H](CC(=O)Nc1nc(C)c(C(=O)OC2CCCC2)s1)NC(=O)c1cccc(-c2noc(C)n2)c1
4. Cc1nc(-c2ccc3ccnc(N[C@H]4CCN(C(=O)c5nc(C)c(C(C)(C)C)s5)C4)c3c2)no1
5. Cc1nc(NC(=O)C[C@H](CC#N)NC(=O)c2cccc(C#N)c2)sc1C(=O)OC(C)C

Reply:
1: 556; 2: 325; 3: 11; 4: 1740; 5: 590

Consider the following items and state reported IC50 for each.
1. CCOC(=O)c1sc(NC(=O)CCNC(=O)c2cccc(-c3noc(C)n3)c2)nc1C(F)(F)F
2. CCCOC(=O)c1sc(NC(=O)[C@@H]2C[C@H](Nc3nccc4ccc(-c5noc(C)n5)cc34)CN2)nc1C
3. CCCOC(=O)c1sc(NC(=O)[C@@H]2C[C@H](NC(=O)c3cccc(-c4noc(C)n4)c3)CN2C)nc1C
4. CCOC(=O)c1sc(NC(=O)C[C@H](CCCN)NC(=O)c2cccc(-c3noc(C)n3)c2)nc1C
5. Cc1nc(-c2ccc3ccnc(N[C@H]4C[C@@H](C(=O)Nc5nc(C)c(C(C)(C)C)s5)C4)c3c2)no1
6. CCOC(=O)c1sc(NC(=O)C[C@H](C)NC(=O)c2cccc(-c3noc(C)n3)c2)nc1C

Reply:
[415, 119, 2100, 57, 72, 61]
